experiment: MMV: MTT Cytotoxicity Assay Day 7 pi of Assay #11 (NO washout), U87-CD4-CXCR4 cells, % cell death @ 5mM compound
Type: toxicity, cell-based
test-parameters: human, u87-cd4-cxcr4, 5000 µM
observable: % Cell Death
Write the number on its own, no unit after it.

compound `CCOc1ccc(/C=C/c2nc(=O)c3ccccc3o2)cc1` , % Cell Death observed: 10

compound `CCOc1ccc2nc(C)cc(Nc3ccc(N(C)C)cc3)c2c1.Cl` , % Cell Death observed: 0

compound `Cc1ccc(NC(=O)Nc2cccc(Cl)c2)cc1F` , % Cell Death observed: -5

compound `Cc1cc(=O)oc2c1ccc1oc(C(=O)c3ccccc3)c(C)c12` , % Cell Death observed: -19

compound `COc1ccc(C=C2SC(Nc3ccc(F)cc3)=NC2=O)c(OC)c1` , % Cell Death observed: 65

compound COc1ccccc1N1CCN(C(CNS(=O)(=O)c2ccc(Cl)cc2)c2cccnc2)CC1 (configuration not stated) , % Cell Death observed: 105

compound `Cc1ccc(Cn2c(N3CCC(C(=O)NCc4cccs4)CC3)nc3ccccc32)cc1` , % Cell Death observed: 78
